Biological target: T1, HLA-B*44:05 (human)
T1 construct: also called peptide-receptive MHC class I molecule
Assay: UV peptide exchange, anti-b2m ELISA
Reported values of peptide exchange yield for individual entries

The cases that follow already have their peptide exchange yield on record.
QEWDPQKTEKY : 50 to 75%
SEGTLPYSY : 20 to 50%
TESIGAQIY : 50 to 75%
REVSVVDIL : > 75%
SELSLLSLY : 50 to 75%

Task: Item under review: TEFQQIINL . Reported peptide exchange yield?
Result: > 75%

Task: Okay, and REAEEKEAQL ?
Result: 50 to 75%

Task: Okay, and IETSSEYFNF ?
Result: 50 to 75%
